target: T1, human PTPRG on the cell surface (U937 cells, HEL cells) (human, UniProt P23470 20-1445); test: flow cytometry on whole HEL cells, screen of the 28 clones (Ctrl row = 0); PTPRG is named as the antigen on HEL cells only in the later examples
T1 construct: Endogenous PTPRG of human AML cell lines
T1 sequence (P23470 20-1445): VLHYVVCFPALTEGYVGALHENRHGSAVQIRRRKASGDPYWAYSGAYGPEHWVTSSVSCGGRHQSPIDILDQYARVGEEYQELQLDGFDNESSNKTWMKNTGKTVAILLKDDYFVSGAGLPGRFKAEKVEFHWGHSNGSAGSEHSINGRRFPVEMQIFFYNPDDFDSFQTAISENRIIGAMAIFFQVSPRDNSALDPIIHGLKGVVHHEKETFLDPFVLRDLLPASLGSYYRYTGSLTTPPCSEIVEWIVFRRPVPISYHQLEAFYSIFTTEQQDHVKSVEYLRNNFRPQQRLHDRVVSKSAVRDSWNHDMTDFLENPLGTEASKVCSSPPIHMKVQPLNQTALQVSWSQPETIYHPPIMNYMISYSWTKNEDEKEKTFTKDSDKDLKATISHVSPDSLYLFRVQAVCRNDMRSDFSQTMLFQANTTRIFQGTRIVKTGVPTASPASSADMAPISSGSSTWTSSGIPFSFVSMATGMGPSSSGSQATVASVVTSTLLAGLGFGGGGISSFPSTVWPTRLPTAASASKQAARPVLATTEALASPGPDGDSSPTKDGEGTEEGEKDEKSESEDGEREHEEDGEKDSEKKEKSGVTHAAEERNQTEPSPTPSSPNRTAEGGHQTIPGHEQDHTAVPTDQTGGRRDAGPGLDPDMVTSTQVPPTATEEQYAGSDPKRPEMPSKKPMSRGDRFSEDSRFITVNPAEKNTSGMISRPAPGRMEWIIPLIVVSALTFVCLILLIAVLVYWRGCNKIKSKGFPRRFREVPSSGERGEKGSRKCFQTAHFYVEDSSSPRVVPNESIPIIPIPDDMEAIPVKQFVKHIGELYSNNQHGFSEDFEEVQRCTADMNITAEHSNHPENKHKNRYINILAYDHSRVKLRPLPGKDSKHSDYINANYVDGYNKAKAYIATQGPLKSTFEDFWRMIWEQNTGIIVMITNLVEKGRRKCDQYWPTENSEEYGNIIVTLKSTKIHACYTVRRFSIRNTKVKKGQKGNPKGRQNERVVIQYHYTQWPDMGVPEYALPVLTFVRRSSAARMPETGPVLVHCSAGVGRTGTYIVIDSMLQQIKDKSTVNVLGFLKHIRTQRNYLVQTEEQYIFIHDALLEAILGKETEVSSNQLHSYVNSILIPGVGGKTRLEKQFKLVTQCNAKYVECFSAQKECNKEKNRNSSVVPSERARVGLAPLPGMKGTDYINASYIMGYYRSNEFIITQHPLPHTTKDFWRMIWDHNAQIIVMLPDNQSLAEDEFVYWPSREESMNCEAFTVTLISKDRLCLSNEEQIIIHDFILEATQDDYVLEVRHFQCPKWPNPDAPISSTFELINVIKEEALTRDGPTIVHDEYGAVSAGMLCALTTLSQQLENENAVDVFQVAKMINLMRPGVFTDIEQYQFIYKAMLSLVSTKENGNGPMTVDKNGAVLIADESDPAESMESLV
quantityMeasured: flow cytometry binding value (the table prints no name or unit)
// print number alone

Please review the entries below; each comes with its answer.
Fab_240 (Fab, V domains shown, Chimeric rabbit/human Fab; also called P240; clone 240) VH: AQSLEESGGRLVTPGTPLTLTCTVSGFSLSAYAMSWVRQAPGKGLEWIGIISSYGNTYYATWAKGRFTISKTSTTVDLKITSPTTEDTATYFCARGDYGNGMSIWGPGTLVTVSS VL: SFVLTQPASVQVNLGQTVSLTCTADTLSRRYASWYQQKPGQAPVLLIYRDTRRPSGVPDRFSGSSSGNTATLTISGAQAGDEADYYCATSDGSGSSYQCVFGGGTQLTVTG: 17.5
Fab_3208 (Fab, V domains shown, Chimeric rabbit/human Fab; also called P3208; clone 3208) VH: AQSVKESEGGLFKPTDTLTLTCTVSGFSLSSYAISWVRRAPGNGLEWIGAIAGYGDAYYASWAKSRSTITRNTNENTVTLKMTSLTAADTATYFCARDDYNVDTGIWGPGTLVTISS VL: SFVLTQPASVQVNLGQTVSLTCTADTLSRRYASWYQQKPGQAPVLLIYRDTSRPSGVPDRFSGSSSGNTATLTISGAQAGDEADYYCATGDGSGSSYQYVFGGGTQLTVTG: 17.1
Fab_17 (Fab, V domains shown, Chimeric rabbit/human Fab; also called P17; clone 17) VH: AQSLEEFGGRLATPGTPLTLTCTASGFSLGTYSMSWVRQAPGKGLEWIGTIGGRGDAYYASWAKGRFTISRTSTTVDLKMTSLATEDTATYFCVRENYGYAFDIWGPGTLVTISS VL: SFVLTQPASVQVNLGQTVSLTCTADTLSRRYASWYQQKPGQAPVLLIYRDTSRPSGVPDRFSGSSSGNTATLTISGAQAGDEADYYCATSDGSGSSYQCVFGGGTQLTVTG: 15.8

// next item, flow cytometry binding value (the table prints no name or unit) requested
So, Fab_2861 (Fab, V domains shown, Chimeric rabbit/human Fab; also called P2861; clone 2861) VH: AQSVEESGGRLVTPGTPLTLTCTVSGIDLSSYAMGWVRQAPGKGLEYIGIIVSDGRTYYTSWAKGRFTISKTSTTVDLKMTSPTTEDTATYFCAREGYGYYFDIWGPGTLVTISS VL: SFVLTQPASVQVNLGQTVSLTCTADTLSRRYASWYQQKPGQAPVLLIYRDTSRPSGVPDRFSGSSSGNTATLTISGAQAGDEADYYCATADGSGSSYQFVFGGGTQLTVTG ? Its flow cytometry binding value (the table prints no name or unit) was 14.5
